# assay_target: human c-Met (HGFR), full length, on the cell surface (human, UniProt P08581 25-1390)
# Sequence (P08581 25-1390 limits assumed): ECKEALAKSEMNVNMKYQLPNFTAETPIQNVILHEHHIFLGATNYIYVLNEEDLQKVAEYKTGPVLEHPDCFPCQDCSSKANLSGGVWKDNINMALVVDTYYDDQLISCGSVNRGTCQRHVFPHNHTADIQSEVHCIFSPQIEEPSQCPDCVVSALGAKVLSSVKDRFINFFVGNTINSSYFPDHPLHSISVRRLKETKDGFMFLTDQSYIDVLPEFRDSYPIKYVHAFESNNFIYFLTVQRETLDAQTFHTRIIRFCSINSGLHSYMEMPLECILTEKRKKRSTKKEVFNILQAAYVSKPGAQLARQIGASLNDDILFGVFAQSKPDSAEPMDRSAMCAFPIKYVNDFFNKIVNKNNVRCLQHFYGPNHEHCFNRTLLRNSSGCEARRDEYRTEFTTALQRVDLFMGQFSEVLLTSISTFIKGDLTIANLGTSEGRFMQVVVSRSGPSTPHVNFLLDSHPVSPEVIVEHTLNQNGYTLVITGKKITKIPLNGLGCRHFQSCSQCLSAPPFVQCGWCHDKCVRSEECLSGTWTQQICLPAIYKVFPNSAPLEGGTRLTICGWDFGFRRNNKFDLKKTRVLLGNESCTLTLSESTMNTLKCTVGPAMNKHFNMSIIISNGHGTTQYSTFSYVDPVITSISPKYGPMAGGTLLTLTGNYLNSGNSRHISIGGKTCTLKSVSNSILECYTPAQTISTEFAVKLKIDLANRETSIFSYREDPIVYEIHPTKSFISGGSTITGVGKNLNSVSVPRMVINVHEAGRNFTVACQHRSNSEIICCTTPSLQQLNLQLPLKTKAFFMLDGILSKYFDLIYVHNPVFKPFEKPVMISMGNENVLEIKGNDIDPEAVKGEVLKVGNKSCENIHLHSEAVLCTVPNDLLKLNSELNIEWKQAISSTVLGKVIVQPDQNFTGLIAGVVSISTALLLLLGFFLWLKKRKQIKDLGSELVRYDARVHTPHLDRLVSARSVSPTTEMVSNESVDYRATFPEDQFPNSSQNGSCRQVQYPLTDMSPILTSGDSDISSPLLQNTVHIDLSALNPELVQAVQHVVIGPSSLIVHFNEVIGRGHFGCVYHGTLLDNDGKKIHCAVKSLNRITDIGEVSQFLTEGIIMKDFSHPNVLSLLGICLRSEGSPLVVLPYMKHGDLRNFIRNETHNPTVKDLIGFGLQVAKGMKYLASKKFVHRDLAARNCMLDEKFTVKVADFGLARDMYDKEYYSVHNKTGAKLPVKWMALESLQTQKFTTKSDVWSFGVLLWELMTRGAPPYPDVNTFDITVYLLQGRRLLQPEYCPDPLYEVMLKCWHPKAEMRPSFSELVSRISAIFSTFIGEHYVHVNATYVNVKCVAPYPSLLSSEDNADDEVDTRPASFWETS
# procedure_details: cell-based or functional assay
assay_readout: Efficacy (%), in vitro cytotoxicity, NCI-H596, +HGF
Note: unit % is implicit; provide only the numeric part.

What value of Efficacy (%), in vitro cytotoxicity, NCI-H596, +HGF has been recorded for this entry: ADC2b (antibody, human IgG1, kappa, V domains shown, vc-seco-DUBA linker-drug on the engineered cysteine at HC position 41 (Kabat); DAR 1.7) VH: QVQLVQSGAEVKKPGSSVKVSCKASGYVFPDYEMHWVRQACGQGLEWMGAFDPETGDTTYNQNFKGRVTITADKSTSTAYMELSSLRSEDTAVYYCARDYKYLYYYAMDNWGQGTTVTVSS VL: DIQMTQSPSSLSASVGDRVTITCTASSSITSSYLHWYQQKPGKAPKLLIYSTTNLASGVPSRFSGSGSGTDFTLTISSLQPEDFATYYCHQYRRSPLTFGGGTKLEIKR
34

What value of Efficacy (%), in vitro cytotoxicity, NCI-H596, +HGF has been recorded for this entry: ADC3 (antibody, human IgG1, kappa, V domains shown, vc-seco-DUBA linker-drug on the engineered cysteine at HC position 41 (Kabat); DAR 1.1) VH: QIQLQQSGPELVKPGASVKISCKASGYTFTDYYLNWVKQRCGQGLEWIGLIFPGNDKTEYSEKFKGKATLTVDTSSSTAYIQLSRLSSEDSAIYFCSGGDYGGFVYWGQGTLVTVSS VL: DIQMTQSPTSLSASVGETVTITCGASENIYGALNWYQRKQGKSPQLLIYGATNLADGMSSRFSGSGSGRQFSLKINSLHPDDVATYFCQNVLSSPLTFGSGTKLEIKR
53

What value of Efficacy (%), in vitro cytotoxicity, NCI-H596, +HGF has been recorded for this entry: ADC3d (antibody, human IgG1, kappa, V domains shown, vc-seco-DUBA linker-drug on the engineered cysteine at HC position 41 (Kabat); DAR 1.8) VH: QVQLQESGAEVKKPGASVKVSCKASGYTFTDYYLNWVRQACGQGLEWMGLIFPGNDKTEYSEKFKGRVTMTRDTSTSTVYMELSSLRSEDTAVYYCSGGDYGGFVYWGQGTLVTVSS VL: DIQLTQSPSSLSASVGDRVTITCGASENIYGALNWYQQKPGKAPKLLIYGATNLADGVPSRFSGSGSGTDFTLTISSLQPEDFATYYCQNVLSSPLTFGPGTKVDIKR
41
